- System: bermudagrass (Cynodon dactylon)
- test.summary: Test B pre-/postemergence plant response
- Type: in vivo
- reported.conditions: Preemergence, 31 g ai/ha; scale 0 to 100 (0 no effect, 100 complete control)
Recorded Plant response rating, Bermudagrass, one value per entry.

input.smiles	Plant response rating, Bermudagrass
O=C1CCCC(O)=C1C(=O)c1cnc(-c2ccccc2)n(-c2ccc(F)cc2)c1=O	95
CCCCn1c(CCC)ncc(C(=O)C2=C(O)CCCC2=O)c1=O	98
CCCc1ncc(C(=O)C2=C(O)CCCC2=O)c(=O)n1CCC	95
Cc1ccc(-n2c(-c3cccc(Cl)c3)ncc(C(=O)C3=C(O)CCCC3=O)c2=O)cc1	85
O=C1CCCC(O)=C1C(=O)c1cnc(-c2cccc(Br)c2)n(-c2ccccc2)c1=O	98
O=C1CCCC([O-])=C1C(=O)c1cnc(-c2ccccc2)n(-c2ccccc2)c1=O.[K+]	70
CCCCn1c(C2CC2)ncc(C(=O)C2=C(O)CCCC2=O)c1=O	75
CCCn1c(-c2ccccc2)ncc(C(=O)C2=C(O)CCCC2=O)c1=O	100
